Origin of the recorded values: patent US20260184706A1

# Subject of test: recombinant human HRI protein (Homo sapiens)
# Sequence (Q9BQI3 whole entry): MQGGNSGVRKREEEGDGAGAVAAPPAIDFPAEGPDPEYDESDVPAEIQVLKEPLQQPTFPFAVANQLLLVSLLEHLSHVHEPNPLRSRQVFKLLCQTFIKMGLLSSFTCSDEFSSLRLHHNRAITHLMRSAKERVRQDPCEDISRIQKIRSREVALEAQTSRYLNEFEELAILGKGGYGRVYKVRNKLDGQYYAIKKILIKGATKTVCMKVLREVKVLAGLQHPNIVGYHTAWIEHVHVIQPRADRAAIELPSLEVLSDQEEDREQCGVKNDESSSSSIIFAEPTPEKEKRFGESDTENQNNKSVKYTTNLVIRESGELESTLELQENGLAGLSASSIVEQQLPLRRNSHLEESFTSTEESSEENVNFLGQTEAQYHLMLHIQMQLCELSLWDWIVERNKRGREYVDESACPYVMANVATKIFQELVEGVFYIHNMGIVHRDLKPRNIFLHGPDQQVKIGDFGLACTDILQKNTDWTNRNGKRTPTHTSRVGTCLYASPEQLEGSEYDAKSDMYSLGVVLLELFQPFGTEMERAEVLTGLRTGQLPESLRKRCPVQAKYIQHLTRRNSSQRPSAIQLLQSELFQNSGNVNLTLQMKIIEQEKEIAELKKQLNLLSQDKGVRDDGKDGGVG
# Test name: eIF2-alpha kinase heme-regulated inhibitor (HRI) inhibitory capacity, 33P-ATP filter assay
# Settings: 45 uM [gamma-33P-ATP], 40 minutes, room temperature
Property label: IC50

What does the record list as IC50 for COc1ncc(Cl)cc1S(=O)(=O)Nc1ccc(F)c(-n2cc(C(F)F)c3nc(N)ncc3c2=O)c1F [Example 22] ?
< 100 nM

How about COc1ncc(C#N)cc1S(=O)(=O)Nc1ccc(F)c(-n2ccc3nc(N)ncc3c2=O)c1F [Example 28] ?
100 to 300 nM

One more molecule: COc1ncc(Br)cc1S(=O)(=O)Nc1ccc(F)c(-n2c(=O)c3cnc(N)nc3n(C)c2=O)c1F [Example 46]
100 to 300 nM

***
If you can, please state the reported IC50 value of CNc1ncc2c(=O)n(-c3c(F)ccc(NS(=O)(=O)c4cc(Cl)cnc4OC)c3F)ccc2n1 [Example 32] .
< 100 nM

Same thing, different molecule: Nc1ncc2c(=O)n(-c3c(F)ccc(NS(=O)(=O)c4cc(Cl)cnc4Cl)c3F)ccc2n1 [Example 27]
< 100 nM

What do we get for Nc1ncc2c(=O)n(-c3c(F)ccc(NS(=O)(=O)c4cccc5ccccc45)c3F)ccc2n1 [Example 29] ?
< 100 nM

Same question, Cn1c(=O)n(-c2c(F)ccc(NS(=O)(=O)c3cc(Cl)cnc3Cl)c2F)c(=O)c2cnc(N)nc21 [Example 57] this time
100 to 300 nM

Consider next the molecule COc1ncc(Cl)cc1S(=O)(=O)Nc1ccc(F)c(-n2c(=O)c3cnc(N)nc3n(C)c2=O)c1F [Example 44] in the same way.
< 100 nM

----------
# Subject of test: recombinant human PKR protein (Homo sapiens)
# Sequence (P19525 whole entry): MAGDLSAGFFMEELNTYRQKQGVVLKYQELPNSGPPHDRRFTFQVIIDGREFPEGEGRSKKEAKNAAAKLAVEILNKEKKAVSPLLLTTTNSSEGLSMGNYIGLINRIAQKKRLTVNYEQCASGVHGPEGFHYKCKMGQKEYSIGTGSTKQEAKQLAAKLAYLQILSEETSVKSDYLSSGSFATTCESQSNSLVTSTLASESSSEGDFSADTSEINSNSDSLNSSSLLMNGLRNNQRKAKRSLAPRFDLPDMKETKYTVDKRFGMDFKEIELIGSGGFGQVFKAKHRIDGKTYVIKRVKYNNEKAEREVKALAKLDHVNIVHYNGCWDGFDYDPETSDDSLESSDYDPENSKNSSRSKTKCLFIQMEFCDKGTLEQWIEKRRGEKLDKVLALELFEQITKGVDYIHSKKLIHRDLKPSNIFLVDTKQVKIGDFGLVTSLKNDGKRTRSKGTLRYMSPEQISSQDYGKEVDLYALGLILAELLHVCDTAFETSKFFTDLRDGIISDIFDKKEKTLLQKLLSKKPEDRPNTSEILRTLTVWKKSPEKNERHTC
# Test name: Protein kinase R (PKR) inhibitory capacity, 33P-ATP filter assay
# Settings: 15 uM [gamma-33P-ATP], 40 minutes, room temperature
Parameter: IC50. Scope: all listed entries.

Examples with their reported IC50 follow.
Bench note: what IC50 did CNc1ncc2c(=O)n(-c3c(F)ccc(NS(=O)(=O)c4cc(Cl)cnc4OC)c3F)ccc2n1 [Example 32] show?
> 1000 nM

Same read-out for Nc1ncc2c(=O)n(-c3c(F)ccc(NS(=O)(=O)c4cccc5ccccc45)c3F)ccc2n1 [Example 29] ?
100 to 300 nM

Can you check COc1ncc(Cl)cc1S(=O)(=O)Nc1ccc(F)c(-n2c(=O)c3cnc(N)nc3n(C)c2=O)c1F [Example 44] next?
300 to 1000 nM

Then Nc1ncc2c(=O)n(-c3c(F)ccc(NS(=O)(=O)c4cc(Cl)cnc4Cl)c3F)ccc2n1 [Example 27] ?
> 1000 nM

And then COc1ncc(Br)cc1S(=O)(=O)Nc1ccc(F)c(-n2c(=O)c3cnc(N)nc3n(C)c2=O)c1F [Example 46] , what is it?
300 to 1000 nM

For COc1ncc(Cl)cc1S(=O)(=O)Nc1ccc(F)c(-n2cc(C(F)F)c3nc(N)ncc3c2=O)c1F [Example 22] then?
300 to 1000 nM

Subsequent entry: COc1ncc(C#N)cc1S(=O)(=O)Nc1ccc(F)c(-n2ccc3nc(N)ncc3c2=O)c1F [Example 28]
> 1000 nM

# evaluate next
Endpoint output: IC50 of Cn1c(=O)n(-c2c(F)ccc(NS(=O)(=O)c3cc(Cl)cnc3Cl)c2F)c(=O)c2cnc(N)nc21 [Example 57] . Value?
300 to 1000 nM
